system-tested: HA of ca A/Wuhan/359/95 (H3N2) (influenza A virus)
protocol-summary: cell-based or functional assay
quantity-name: Neutralization IC50, H3-WH95 (µg/mL)

Antibody 12 (antibody, V domains shown) VH: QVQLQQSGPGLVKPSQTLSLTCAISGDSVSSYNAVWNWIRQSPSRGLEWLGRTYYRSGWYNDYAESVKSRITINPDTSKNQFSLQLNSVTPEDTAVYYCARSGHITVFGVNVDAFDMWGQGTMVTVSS VL: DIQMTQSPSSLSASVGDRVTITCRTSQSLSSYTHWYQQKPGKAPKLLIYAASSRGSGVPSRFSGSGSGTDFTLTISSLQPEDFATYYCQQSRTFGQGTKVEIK = 2.09
Antibody 14 (antibody, V domains shown) VH: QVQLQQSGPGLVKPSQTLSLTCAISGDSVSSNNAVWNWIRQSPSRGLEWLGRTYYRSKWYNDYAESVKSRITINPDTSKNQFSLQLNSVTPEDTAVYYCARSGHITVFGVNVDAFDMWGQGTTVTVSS VL: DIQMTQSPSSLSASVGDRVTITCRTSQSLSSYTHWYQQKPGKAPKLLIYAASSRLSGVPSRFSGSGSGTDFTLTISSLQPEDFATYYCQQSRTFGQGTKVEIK = 2.77
Antibody 3 (antibody, V domains shown) VH: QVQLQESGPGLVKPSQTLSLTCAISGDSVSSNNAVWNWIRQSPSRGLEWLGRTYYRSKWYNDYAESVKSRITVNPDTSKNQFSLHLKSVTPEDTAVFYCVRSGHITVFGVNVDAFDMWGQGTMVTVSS VL: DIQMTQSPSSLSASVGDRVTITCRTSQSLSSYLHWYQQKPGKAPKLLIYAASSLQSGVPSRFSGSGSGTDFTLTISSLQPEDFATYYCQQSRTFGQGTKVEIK = 5.63
